- Tested on: Diamondback Moth (Plutella xyloxtella)
- procedure_summary: Control of diamondback moth on cabbage by soil treatment, number of parasitic insects
- Format: in vivo
- assay_setup: 5 mg ai/hill, pre-transplanting treatment, 21 days after transplanting
- Text: Test for the Control of Diamondback Moth (Plutella xyloxtella) and Aphid on Cabbage by Soil Treatment A granular preparation was mixed into bed soil, and the mixture was filled into a cell seedling box and sown with seeds of cabbage (variety: YR Seitoku). […] Twenty one days after the transplanting (in the middle of June), the number of parasitic insects was counted on 30 hills in the case of diamondback moth and on 10 hills in the case of aphid.
Number of parasitic insects per 30 hills, Diamondback moth overview
The answer should be a number; do not append a unit.

Observe how each entry below is paired with its result.
• Cc1cc(C(F)(F)C(F)(F)F)ccc1NC(=O)c1cccc(Cl)c1C(=O)NC(C)C = 1
• CC(C)NC(=O)c1c(I)cccc1C(=O)Nc1ccc(C(F)(F)F)cc1Cl = 4
• Cc1cc(OC(F)(F)F)ccc1NC(=O)c1cccc(Cl)c1C(=O)NC(C)C = 6
• Cc1cc(C(F)(F)C(F)(F)F)ccc1NC(=O)c1cccc(I)c1C(=O)NC(C)C = 1
• Cc1cc(C(F)(F)C(F)(F)C(F)(F)F)ccc1NC(=O)c1cccc(I)c1C(=O)NC(C)C = 3

We next turn to a different molecule, shown below.
Return reported Number of parasitic insects per 30 hills, Diamondback moth; argument: Cc1cc(C(F)(F)F)ccc1NC(=O)c1cccc(I)c1C(=O)NC(C)C 1
